Would you mind telling me the reported Ratio Ki of each entry?
- EXPERIMENT SUMMARY: Ratio of Ki for SERT to Ki for DAT

Query: Supply recorded Ratio Ki for O=C(Cc1ccccc1)CN1CCN(CCOC(c2ccc(F)cc2)c2ccc(F)cc2)CC1 here.
Reply: 38

Query: Respond only with Ratio Ki recorded for O=C(CN1CCN(CCOC(c2ccc(F)cc2)c2ccc(F)cc2)CC1)c1ccccc1
Reply: 2

Query: Return Ratio Ki for the following compound: FC[C@@H](Cc1ccccc1)N1CCN(CCOC(c2ccc(F)cc2)c2ccc(F)cc2)CC1
Reply: 2

Query: Please supply the value of reported Ratio Ki for the item O[C@@H](Cc1ccccc1)CN1CCN(CCOC(c2ccccc2)c2ccccc2)CC1
Reply: 957

Query: Note Ratio Ki for the compound shown: C=C(Cc1ccccc1)CN1CCN(CCOC(c2ccccc2)c2ccccc2)CC1
Reply: 8

====

- EXPERIMENT SUMMARY: Ratio of Ki for SERT to Ki for DAT
OUTCOME MEASURE: Ratio Ki

Query: Tell me its Ratio Ki given C=C(CCN1CCN(CCOC(c2ccccc2)c2ccccc2)CC1)c1ccccc1 as the entry.
Reply: 59

Query: Entry N[C@H](Cc1ccccc1)CN1CCN(CCOC(c2ccc(F)cc2)c2ccc(F)cc2)CC1 needs its Ratio Ki filled in; supply it.
Reply: 1

Query: Quickly give me recorded Ratio Ki for O=C(CN1CCN(CCOC(c2ccccc2)c2ccccc2)CC1)c1ccccc1
Reply: 3

Query: Answer with reported Ratio Ki of N[C@@H](Cc1ccccc1)CN1CCN(CCOC(c2ccc(F)cc2)c2ccc(F)cc2)CC1
Reply: 2

Query: Quickly give me recorded Ratio Ki for CC(O)(CCN1CCN(CCOC(c2ccc(F)cc2)c2ccc(F)cc2)CC1)c1ccccc1 (stereo not given)
Reply: 39

====

- SYSTEM: UniProt Q01959
- Sequence (Q01959 whole entry): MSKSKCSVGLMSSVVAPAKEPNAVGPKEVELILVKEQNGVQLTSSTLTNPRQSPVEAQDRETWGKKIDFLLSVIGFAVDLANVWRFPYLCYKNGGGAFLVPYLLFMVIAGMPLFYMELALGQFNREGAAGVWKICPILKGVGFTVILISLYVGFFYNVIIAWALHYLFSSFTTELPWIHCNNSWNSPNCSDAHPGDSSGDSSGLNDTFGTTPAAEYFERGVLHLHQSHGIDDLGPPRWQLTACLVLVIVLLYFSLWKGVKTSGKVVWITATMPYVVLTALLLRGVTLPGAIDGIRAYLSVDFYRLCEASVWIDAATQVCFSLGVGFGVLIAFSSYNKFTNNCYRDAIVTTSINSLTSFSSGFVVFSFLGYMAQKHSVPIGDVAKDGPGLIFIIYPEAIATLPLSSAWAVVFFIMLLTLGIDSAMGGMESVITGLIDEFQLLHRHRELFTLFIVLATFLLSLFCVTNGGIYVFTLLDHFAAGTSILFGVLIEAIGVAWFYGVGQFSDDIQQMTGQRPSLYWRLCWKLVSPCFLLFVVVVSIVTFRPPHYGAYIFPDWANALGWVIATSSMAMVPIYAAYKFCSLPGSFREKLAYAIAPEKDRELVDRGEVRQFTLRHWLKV
- EXPERIMENT SUMMARY: Displacement of [125I]RTI55 from DAT
OUTCOME MEASURE: Ki (nM)
Reply numerically in nM, unit not repeated.

Query: Given the compound Fc1ccc(C(OCCN2CCN(CCc3ccccc3)CC2)c2ccc(F)cc2)cc1 , write its reported Ki.
Reply: 8

Query: Give the reported Ki for this compound. O[C@H](Cc1ccccc1)CN1CCN(CCOC(c2ccccc2)c2ccccc2)CC1
Reply: 25

Query: Report Ki for O[C@H](Cc1ccccc1)CN1CCN(CCOC(c2ccc(F)cc2)c2ccc(F)cc2)CC1
Reply: 12

Query: Complete the entry with Ki for O[C@@H](Cc1ccccc1)CN1CCN(CCOC(c2ccc(F)cc2)c2ccc(F)cc2)CC1
Reply: 0.75

Query: Please supply the value of reported Ki for the item O[C@@H](Cc1ccccc1)CN1CCN(CCOC(c2ccccc2)c2ccccc2)CC1
Reply: 2.3
